Readings of viability, T/C for the listed molecules
Tested on: 429239-143-T-J1-PDC complex spheroid viability
Assay: Anticancer human tumor 429239-143-T-J1-PDC patient-derived small cell lung carcinoma cell line growth inhibition [POLQ]
Settings: second compound 3.16 µM; first compound 0.316 µM; stronger effect = lower value
Please respond with the number in % and leave the unit unwritten.

>>> value_measured("CCCS(=O)(=O)Nc1ccc(F)c(C(=O)c2c[nH]c3ncc(-c4ccc(Cl)cc4)cc23)c1F + COC1C(OC(N)=O)C(O)C(Oc2ccc3c(O)c(NC(=O)c4ccc(O)c(CC=C(C)C)c4)c(=O)oc3c2C)OC1(C)C")
106
>>> value_measured("COc1cc2cc(C(=O)CCC(=O)O)sc2cc1OC + Nc1ccc(C#CCN(C(=O)Cc2ncc(C(F)(F)F)cc2C(F)(F)F)c2ccc(F)cc2)nn1")
103
>>> value_measured("CCc1c2c(nc3ccc(O)cc13)-c1cc3c(c(=O)n1C2)COC(=O)[C@]3(O)CC + COC1C(OC(N)=O)C(O)C(Oc2ccc3c(O)c(NC(=O)c4ccc(O)c(CC=C(C)C)c4)c(=O)oc3c2C)OC1(C)C")
15.3
>>> value_measured("CC1COCCN1c1cc(C2(S(C)(=N)=O)CC2)nc(-c2ccnc3[nH]ccc23)n1 (stereo not given) + Nc1ccc(C#CCN(C(=O)Cc2ncc(C(F)(F)F)cc2C(F)(F)F)c2ccc(F)cc2)nn1")
90.7

Next item in the queue.
Considering CCCS(=O)(=O)Nc1ccc(F)c(C(=O)c2c[nH]c3ncc(-c4ccc(Cl)cc4)cc23)c1F + Cc1cccc(N(C)C(=O)C2C(O)CCN2c2nc(C)cc(C(F)(F)F)c2C#N)c1 , its viability, T/C with 429239-143-T-J1-PDC complex spheroid viability was recorded as 97.4

###

# viability, T/C per entry
Tested on: 429239-143-T-J1-PDC complex spheroid viability
Test: Anticancer human tumor 429239-143-T-J1-PDC cell line growth inhibition [POLQ];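 on viability, T/C: 100% = DMSO vehicle control viability as luminescence relative to vehicle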
Settings: second compound 3.16 µM; first compound 0.1 µM; stronger effect = lower value
Give just the numeric value; % need not be written.

>>> value_measured("O=c1[nH]cc(F)c(=O)[nH]1 + COC1C(OC(N)=O)C(O)C(Oc2ccc3c(O)c(NC(=O)c4ccc(O)c(CC=C(C)C)c4)c(=O)oc3c2C)OC1(C)C")
98.8
>>> value_measured("C=CC(=O)N1CCN(c2nc(=O)n(-c3c(C)ccnc3C(C)C)c3nc(-c4c(O)cccc4F)c(F)cc23)C(C)C1 (stereo not drawn) + COC1C(OC(N)=O)C(O)C(Oc2ccc3c(O)c(NC(=O)c4ccc(O)c(CC=C(C)C)c4)c(=O)oc3c2C)OC1(C)C")
107

Query molecule follows.
Lab note: CC1COCCN1c1cc(C2(S(C)(=N)=O)CC2)nc(-c2ccnc3[nH]ccc23)n1 (stereo not drawn) + Cc1cccc(N(C)C(=O)C2C(O)CCN2c2nc(C)cc(C(F)(F)F)c2C#N)c1 gave viability, T/C of 97.6

###

This section presents molecules with their documented IC50 values.
Test system: 429239-143-T-J1-PDC complex spheroid viability
Experiment: Anticancer human tumor 429239-143-T-J1-PDC cell line growth inhibition [POLQ];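 further: luminescence signal used as surrogate measure of viable cells; spheroids exposed to compounds for seven days before readout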
Details: curve of first compound; second compound 0.316 µM
Report the value in nM with no unit label.

Some molecules with known IC50 results, for comparison:
>>> value_measured("O=c1[nH]cc(F)c(=O)[nH]1 + Nc1ccc(C#CCN(C(=O)Cc2ncc(C(F)(F)F)cc2C(F)(F)F)c2ccc(F)cc2)nn1")
4050
>>> value_measured("CC[C@@]1(O)C(=O)OCc2c1cc1n(c2=O)Cc2cc3c(CN(C)C)c(O)ccc3nc2-1 + Cc1cccc(N(C)C(=O)C2C(O)CCN2c2nc(C)cc(C(F)(F)F)c2C#N)c1")
15.5
>>> value_measured("COc1cccc2c1C(=O)c1c(O)c3c(c(O)c1C2=O)CC(O)(C(=O)CO)CC3OC1CC(N)C(O)C(C)O1 (stereo not given) + Nc1ccc(C#CCN(C(=O)Cc2ncc(C(F)(F)F)cc2C(F)(F)F)c2ccc(F)cc2)nn1")
109
>>> value_measured("COc1ccc([C@@H](O)c2cc(-c3ncnc4cc(N5CCOCC5)ccc34)c(F)cc2Cl)nn1 + Cc1cccc(N(C)C(=O)C2C(O)CCN2c2nc(C)cc(C(F)(F)F)c2C#N)c1")
2480
>>> value_measured("C=CCn1c(=O)c2cnc(Nc3ccc(N4CCN(C)CC4)cc3)nc2n1-c1cccc(C(C)(C)O)n1 + Nc1ccc(C#CCN(C(=O)Cc2ncc(C(F)(F)F)cc2C(F)(F)F)c2ccc(F)cc2)nn1")
599

Record COc1cccc2c1C(=O)c1c(O)c3c(c(O)c1C2=O)CC(O)(C(=O)CO)CC3OC1CC(N)C(O)C(C)O1 (stereo not given) + COC1C(OC(N)=O)C(O)C(Oc2ccc3c(O)c(NC(=O)c4ccc(O)c(CC=C(C)C)c4)c(=O)oc3c2C)OC1(C)C . Reported IC50: 48.2

For this molecule ( CCc1cc2c(N3CCc4c(cc(Cn5ccnc5)cc4-c4cn(C)nc4C(F)(F)F)C3=O)ccnc2c(OC)n1 + COC1C(OC(N)=O)C(O)C(Oc2ccc3c(O)c(NC(=O)c4ccc(O)c(CC=C(C)C)c4)c(=O)oc3c2C)OC1(C)C ), measured IC50 is 2660

For record CC1COCCN1c1cc(C2(S(C)(=N)=O)CC2)nc(-c2ccnc3[nH]ccc23)n1 (stereo not given) + COC1C(OC(N)=O)C(O)C(Oc2ccc3c(O)c(NC(=O)c4ccc(O)c(CC=C(C)C)c4)c(=O)oc3c2C)OC1(C)C the listed IC50 is 1990

Quick note, IC50 for CC1COCCN1c1cc(C2(S(C)(=N)=O)CC2)nc(-c2ccnc3[nH]ccc23)n1 (stereo not given) + Nc1ccc(C#CCN(C(=O)Cc2ncc(C(F)(F)F)cc2C(F)(F)F)c2ccc(F)cc2)nn1 landed at 9920

###

System: 429239-143-T-J1-PDC complex spheroid viability
Assay: Anticancer human tumor 429239-143-T-J1-PDC cell line growth inhibition [POLQ];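 further: luminescence signal used as surrogate measure of viable cells; spheroids exposed to compounds for seven days before readout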;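 on viability, T/C: 100% = DMSO vehicle control viability as luminescence relative to vehicle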
Conditions: second compound 0.0316 µM; first compound 0.1 µM; stronger effect = lower value
measure: viability, T/C (%)
The answer is to be given in %; state only the numeric part.

Sample answers from the record:
>>> value_measured("CC1COCCN1c1cc(-c2ccnn2C)c2ccnc(-c3ccn[nH]3)c2n1 (stereo not drawn) + Nc1ccc(C#CCN(C(=O)Cc2ncc(C(F)(F)F)cc2C(F)(F)F)c2ccc(F)cc2)nn1")
77.8
>>> value_measured("CC1COCCN1c1cc(-c2ccnn2C)c2ccnc(-c3ccn[nH]3)c2n1 (stereo not drawn) + COC1C(OC(N)=O)C(O)C(Oc2ccc3c(O)c(NC(=O)c4ccc(O)c(CC=C(C)C)c4)c(=O)oc3c2C)OC1(C)C")
40.2

Sample CCc1c2c(nc3ccc(O)cc13)-c1cc3c(c(=O)n1C2)COC(=O)[C@]3(O)CC + Cc1cccc(N(C)C(=O)C2C(O)CCN2c2nc(C)cc(C(F)(F)F)c2C#N)c1 ; viability, T/C observed: 17.5

###

Test system: 429239-143-T-J1-PDC complex spheroid viability
Assay: Anticancer human tumor 429239-143-T-J1-PDC cell line growth inhibition [POLQ];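 further: luminescence signal used as surrogate measure of viable cells; spheroids exposed to compounds for seven days before readout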;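 on viability, T/C: 100% = DMSO vehicle control viability as luminescence relative to vehicle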
Conditions: second compound 10 µM; first compound 1 µM; stronger effect = lower value
Recorded viability, T/C, one value per entry.
Please give a number only; it is taken to be in %.

Recorded viability, T/C, per entry:
>>> value_measured("CC(C)n1c(=O)n(C)c2cnc3cc(F)c(-c4ccc(OCCCN5CCCCC5)nc4)cc3c21 + Cc1cccc(N(C)C(=O)C2C(O)CCN2c2nc(C)cc(C(F)(F)F)c2C#N)c1")
89.1
>>> value_measured("CCc1cc2c(N3CCc4c(cc(Cn5ccnc5)cc4-c4cn(C)nc4C(F)(F)F)C3=O)cc(C)nc2c(OC)n1 + Nc1ccc(C#CCN(C(=O)Cc2ncc(C(F)(F)F)cc2C(F)(F)F)c2ccc(F)cc2)nn1")
79.3

Entry CCCS(=O)(=O)Nc1ccc(F)c(C(=O)c2c[nH]c3ncc(-c4ccc(Cl)cc4)cc23)c1F + Nc1ccc(C#CCN(C(=O)Cc2ncc(C(F)(F)F)cc2C(F)(F)F)c2ccc(F)cc2)nn1 — recorded viability, T/C = 108

###

Test system: 429239-143-T-J1-PDC complex spheroid viability
Test: Anticancer human tumor 429239-143-T-J1-PDC cell line growth inhibition [POLQ];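 further: luminescence signal used as surrogate measure of viable cells; spheroids exposed to compounds for seven days before readout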;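 on viability, T/C: 100% = DMSO vehicle control viability as luminescence relative to vehicle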
Details: second compound 3.16 µM; first compound 10 µM; stronger effect = lower value
measure: viability, T/C (%)
Write the value in % as a bare number.

Example entries and their recorded answers appear below.
>>> value_measured("Nc1ccn(C2OC(CO)C(O)C2(F)F)c(=O)n1 (stereo not drawn) + COC1C(OC(N)=O)C(O)C(Oc2ccc3c(O)c(NC(=O)c4ccc(O)c(CC=C(C)C)c4)c(=O)oc3c2C)OC1(C)C")
13.5
>>> value_measured("CCc1cc2c(N3CCc4c(cc(Cn5ccnc5)cc4-c4cn(C)nc4C(F)(F)F)C3=O)ccnc2c(OC)n1 + COC1C(OC(N)=O)C(O)C(Oc2ccc3c(O)c(NC(=O)c4ccc(O)c(CC=C(C)C)c4)c(=O)oc3c2C)OC1(C)C")
37.3

The recorded viability, T/C for O=c1[nH]cc(F)c(=O)[nH]1 + COC1C(OC(N)=O)C(O)C(Oc2ccc3c(O)c(NC(=O)c4ccc(O)c(CC=C(C)C)c4)c(=O)oc3c2C)OC1(C)C is 43.4
